Parameter Kd: see the listing below.
Target: T1, Histidine-tagged human CD3e protein (human, UniProt P07766 23-126)
T1 construct: also called hCD3e-His; not shown: His tag
T1 sequence (P07766 23-126 limits assumed): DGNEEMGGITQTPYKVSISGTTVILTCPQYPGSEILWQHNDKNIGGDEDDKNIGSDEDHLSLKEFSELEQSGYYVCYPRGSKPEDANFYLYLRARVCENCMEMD
Experiment: SPR (Biacore), human CD3e
Note: unit nM is implicit; provide only the numeric part.

Below: 4 binders and their reported Kd.
{"binder": "10A4-H1K1-IgG1-LALA (antibody, V domains shown, Humanized; human IgG1 with LALA mutations; also called H1K1 (humanized 10A4)) VH: QVQLVQSGAEVKKPGASVKVSCKASGYTFTSYYIHWVRQAPGQRLEFIGWIYPGNVNAKYNEKFKGRVTITTDKSASTAYMELSSLRSEDTAVYYCAIKGGNYDWGQGTLVTVSS VL: DVVMTQSPLSLPVTLGQPASISCQSSQSLLDSDGKTYLNWLQQRPGQSPRRLIYLVSKLGSGVPDRFSGSGSGTDFTLKISRVEAEDVGVYYCWQGTHFPRTFGGGTKVEIK", "Kd [nM]": 1.86}
{"binder": "10A4-H4K1-IgG1-LALA (antibody, V domains shown, Humanized; human IgG1 with LALA mutations; also called H4K1 (humanized 10A4)) VH: QVQLQQSGAEVKKPGASVRISCKASGYTFTSYYIHWVRQRPGQGLEFIGWIYPGNVNAKYNEKFKGRATLTTDKSASTAYMELSSLRSEDTAVYFCAIKGGNYDWGQGTLVTVSS VL: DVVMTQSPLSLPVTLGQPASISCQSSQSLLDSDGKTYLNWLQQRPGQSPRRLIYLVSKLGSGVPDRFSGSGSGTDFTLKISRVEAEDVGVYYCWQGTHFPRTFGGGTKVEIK", "Kd [nM]": 1.31}
{"binder": "10A4-H2K2-IgG1-LALA (antibody, V domains shown, Humanized; human IgG1 with LALA mutations; also called H2K2 (humanized 10A4)) VH: QVQLVQSGAEVKKPGASVKISCKASGYTFTSYYIHWVRQAPGQRLEFIGWIYPGNVNAKYNEKFKGRATITTDKSASTAYMELSSLRSEDTAVYYCAIKGGNYDWGQGTLVTVSS VL: DVVMTQSPLSLPVTLGQPASISCQSSQSLLDSDGKTYLNWLQQRPGQSPRRLIYLVSKLGSGVPDRFSGSGSGTDFTLKISRVEAEDVGVYYCWQGTHFPRTFGGGTKLEIK", "Kd [nM]": 1.96}
{"binder": "10A4-H4K2-IgG1-LALA (antibody, V domains shown, Humanized; human IgG1 with LALA mutations; also called H4K2 (humanized 10A4)) VH: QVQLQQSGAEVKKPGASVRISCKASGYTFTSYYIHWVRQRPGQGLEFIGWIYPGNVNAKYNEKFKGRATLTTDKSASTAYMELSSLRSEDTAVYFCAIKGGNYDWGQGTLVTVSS VL: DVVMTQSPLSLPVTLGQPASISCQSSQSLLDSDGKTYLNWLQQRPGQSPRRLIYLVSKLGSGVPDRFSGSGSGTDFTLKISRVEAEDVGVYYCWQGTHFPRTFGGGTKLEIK", "Kd [nM]": 1.6}

Kd for 10A4-H3K1-IgG1-LALA (antibody, V domains shown, Humanized; human IgG1 with LALA mutations; also called H3K1 (humanized 10A4)) VH: QVQLVQSGAEVKKPGASVKISCKASGYTFTSYYIHWVRQRPGQRLEFIGWIYPGNVNAKYNEKFKGRATLTTDKSASTAYMELSSLRSEDTAVYFCAIKGGNYDWGQGTLVTVSS VL: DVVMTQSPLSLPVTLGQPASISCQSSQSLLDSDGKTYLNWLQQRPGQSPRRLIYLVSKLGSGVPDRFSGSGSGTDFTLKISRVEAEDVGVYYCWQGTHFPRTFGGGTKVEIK ?
2.12

The reported measurements were obtained from patent US20210269525A1.
